# System: kochia (Kochia scoparia)
# method: Test C postemergence
# Type: in vivo
# measurementContext: Rate 500 g/ha, scale 0 to 100 (0 no effect, 100 complete control)
valueType: Plant response rating, Kochia
Format: numeric value only, no unit, no commentary.

# compound, assayedSystem, resultValue
measured = [
    ("CCCC(C)c1ccn(C2CCN(c3ccc(Cl)c(OC)c3)C2=O)n1 (stereo not drawn)", "kochia (Kochia scoparia)", 90),
    ("CCCC(C)c1ccn(C2OCN(c3cccc(OC(F)(F)F)c3)C2=O)n1 (stereo not drawn)", "kochia (Kochia scoparia)", 90),
    ("CCC(C)c1ccn(C2CCN(c3ccc(Cl)c(OC)c3)C2=O)n1 (stereo not drawn)", "kochia (Kochia scoparia)", 90),
    ("Cc1ccc(N2CCC(n3ccc(C(C)(C)C)n3)C2=O)cc1I (stereo not drawn)", "kochia (Kochia scoparia)", 100),
    ("O=C1C(n2ccc(C3CCC3)n2)SCN1c1cccc(OC(F)(F)F)c1 (stereo not drawn)", "kochia (Kochia scoparia)", 70),
]

Query compound follows.
Data request: Give a short answer stating reported Plant response rating, Kochia for CCC(CC)c1ccn(C2CCN(c3ccc(Br)c(OC)c3)C2=O)n1 (stereo not drawn) .
Data returned: 90

---

# Tested on: redroot pigweed (Amaranthus retroflexus)
# method: Test A preemergence, soil drench
# Type: in vivo
# measurementContext: Rate 2000 g/ha, approx. eleven days
// values below are reported Plant response rating (visual injury vs untreated controls)
Format: numeric value only, no unit, no commentary.

Use the examples below as a reference point.
# compound, resultValue
data = [
    ("CC(C)c1ccn(C2OCN(c3cccc(C(F)(F)F)c3)C2=O)n1 (stereo not shown) [Compound 27]", 100),
    ("Cc1ccn(C2CCN(c3cccc(C(F)(F)F)c3)C2=O)n1 (stereo not shown) [Compound 16]", 100),
    ("CC(C)(C)c1ccn(C2SCN(c3cccc(C(F)(F)F)c3)C2=O)n1 (stereo not shown) [Compound 1]", 100),
]

Data request: Give a short answer stating reported Plant response rating (visual injury vs untreated controls) for CC(C)(C)c1ccn(C2OCN(c3cccc(C(F)(F)F)c3)C2=O)n1 (stereo not shown) [compound 9] .
Data returned: 100

Data request: Give a short answer stating reported Plant response rating (visual injury vs untreated controls) for CCC(C)c1nn(C2CCN(c3cccc(C(F)(F)F)c3)C2=O)cc1Cl (stereo not shown) [Compound 13] .
Data returned: 100

Data request: Give a short answer stating reported Plant response rating (visual injury vs untreated controls) for CC1CCc2cn(C3CCN(c4cccc(C(F)(F)F)c4)C3=O)nc21 (stereo not shown) [Compound 11] .
Data returned: 100

Data request: Give a short answer stating reported Plant response rating (visual injury vs untreated controls) for CC1(C)CCc2cn(C3CCN(c4cccc(C(F)(F)F)c4)C3=O)nc21 (stereo not shown) [Compound 10] .
Data returned: 100

---

# Tested on: Surinam grass (Brachiaria decumbens)
# method: Test B postemergence
# Type: in vivo
# measurementContext: Rate 500 g/ha, scale 0 to 100, 0 is no effect, 100 is complete control, 13 to 15 days
# Method: […] At the same time, plants selected from these crop and weed species and also blackgrass (Alopecurus myosuroides), wheat (Triticum aestivum) and wild oat (Avena fatua) were treated with postemergence applications of test chemicals formulated in the same manner. […] Treated plants and controls were maintained in a greenhouse for 13 to 15 days, after which time all species were compared to controls and visually evaluated. […]
// values below are reported Plant response rating, Surinam grass
Format: numeric value only, no unit, no commentary.

Use the examples below as a reference point.
# compound, valueType, resultValue
data = [
    ("COc1cc(N2CCC(n3ccc(C(C)C)n3)C2=O)ccc1Cl (stereo not shown) [Compound 120]", "Plant response rating, Surinam grass", 40),
    ("CCCCC(C)c1ccn(C2OCN(c3cccc(C(F)(F)F)c3)C2=O)n1 (stereo not shown) [Compound 98]", "Plant response rating, Surinam grass", 0),
    ("CCC(C)c1ccn(C2OCN(c3cccc(C(F)(F)F)c3)C2=O)n1 (stereo not shown) [Compound 24]", "Plant response rating, Surinam grass", 50),
]

Data request: Give a short answer stating reported Plant response rating, Surinam grass for CCCC(C)c1ccn(C2OCN(c3cccc(OC(F)F)c3)C2=O)n1 (stereo not shown) [Compound 132] .
Data returned: 0

Data request: Give a short answer stating reported Plant response rating, Surinam grass for O=C1C(n2ccc(C3CC3)n2)SCN1c1cccc(C(F)(F)F)c1 (stereo not shown) [Compound 26] .
Data returned: 20

Data request: Give a short answer stating reported Plant response rating, Surinam grass for CCC(CC)c1ccn(C2CCN(c3ccc(C)c(OC)c3)C2=O)n1 (stereo not shown) [Compound 81] .
Data returned: 10

Data request: Give a short answer stating reported Plant response rating, Surinam grass for CCOc1cccc(N2CCC(n3ccc(C(C)CC)n3)C2=O)c1 (stereo not shown) [Compound 126] .
Data returned: 0

Data request: Give a short answer stating reported Plant response rating, Surinam grass for COc1cc(N2CCC(n3ccc(C(C)(C)C)n3)C2=O)ccc1Cl (stereo not shown) [Compound 117] .
Data returned: 40

Data request: Give a short answer stating reported Plant response rating, Surinam grass for Cc1c(F)cc(N2CCC(n3ccc(C(C)(C)C)n3)C2=O)cc1Br (stereo not shown) [Compound 78] .
Data returned: 0

Data request: Give a short answer stating reported Plant response rating, Surinam grass for CCC(C)c1ccn(C2OCN(c3cccc(OC(F)(F)F)c3)C2=O)n1 (stereo not shown) [Compound 67] .
Data returned: 30

Data request: Give a short answer stating reported Plant response rating, Surinam grass for CC(C)(C)c1ccn(C2CCN(c3ccc(F)c(Br)c3)C2=O)n1 (stereo not shown) [Compound 75] .
Data returned: 0

Data request: Give a short answer stating reported Plant response rating, Surinam grass for CC(C)Oc1cccc(N2CCC(n3ccc(C(C)(C)C)n3)C2=O)c1 (stereo not shown) [Compound 70] .
Data returned: 0

Data request: Give a short answer stating reported Plant response rating, Surinam grass for CC(C)(C)c1ccn(C2OCN(c3cccc(OC(F)(F)F)c3)C2=O)n1 (stereo not shown) [Compound 66] .
Data returned: 30

Data request: Give a short answer stating reported Plant response rating, Surinam grass for Cc1ccc(N2CCC(n3ccc(C(C)(C)C)n3)C2=O)cc1OC(C)C (stereo not shown) [Compound 110] .
Data returned: 0

Data request: Give a short answer stating reported Plant response rating, Surinam grass for CC(C)(C)c1ccn(C2SCN(c3cccc(C(F)(F)F)c3)C2=O)n1 (stereo not shown) [Compound 1] .
Data returned: 0

---

# System: lambsquarters (Chenopodium album)
# method: Test B preemergence
# Type: in vivo
# measurementContext: preemergence; Rate 125 g/ha; scale 0 to 100, 0 no effect, 100 complete control
// values below are reported Plant response rating, Lambsquarters

Data request: Give a short answer stating reported Plant response rating, Lambsquarters for O=C1C(n2ccc(C3CCC3)n2)OCN1c1cccc(C(F)(F)F)c1 (stereo not shown) .
Data returned: 100

Data request: Give a short answer stating reported Plant response rating, Lambsquarters for O=C1C(n2cccn2)CCN1c1cccc(C(F)(F)F)c1 (stereo not shown) .
Data returned: 0

Data request: Give a short answer stating reported Plant response rating, Lambsquarters for CC(C)(C)c1nn(C2CCN(c3cccc(C(F)(F)F)c3)C2=O)cc1Cl (stereo not shown) .
Data returned: 0

Data request: Give a short answer stating reported Plant response rating, Lambsquarters for CC(C)(C)c1ccn(C2CCN(c3cccc(Cl)c3)C2=O)n1 (stereo not shown) .
Data returned: 100

---

// values below are reported Plant response rating, Kochia
# Tested on: kochia (Kochia scoparia)
# method: Test C preemergence
# Assay type: in vivo
# measurementContext: Rate 125 g/ha; scale 0 to 100, 0 no effect, 100 complete control
Format: numeric value only, no unit, no commentary.

Data request: Give a short answer stating reported Plant response rating, Kochia for COc1cc(N2CCC(n3ccc(C(C)C)n3)C2=O)ccc1Br (stereo not drawn) [Compound 140] .
Data returned: 100

Data request: Give a short answer stating reported Plant response rating, Kochia for CC(C)OC(=O)c1cccc(N2CCC(n3ccc(C(C)(C)C)n3)C2=O)c1 (stereo not drawn) [Compound 124] .
Data returned: 60

Data request: Give a short answer stating reported Plant response rating, Kochia for CCC(CC)c1ccn(C2CCN(c3ccc(Cl)c(OC)c3)C2=O)n1 (stereo not drawn) [Compound 118] .
Data returned: 100

---

# Tested on: bermudagrass (Cynodon dactylon)
# method: Test C preemergence
# Type: in vivo
# measurementContext: preemergence, Rate 62 g/ha, scale 0 to 100
valueType: Plant response rating, Bermudagrass
Format: numeric value only, no unit, no commentary.

Use the examples below as a reference point.
# molecule, assayedSystem, Plant response rating, Bermudagrass
data = [
    ("CC(C)(C)c1ccn(C2CCN(c3cccc(SC(F)(F)F)c3)C2=O)n1 (stereo not drawn)", "bermudagrass (Cynodon dactylon)", 0),
    ("CCCC(C)c1ccn(C2OCN(c3cccc(OC(F)(F)F)c3)C2=O)n1 (stereo not drawn)", "bermudagrass (Cynodon dactylon)", 10),
]

Query molecule follows.
Data request: Give a short answer stating reported Plant response rating, Bermudagrass for CCOc1cccc(N2CCC(n3ccc(C(C)C)n3)C2=O)c1 (stereo not drawn) .
Data returned: 100
